test.name: Metabolic stability in mouse liver microsomes at 5 uM after 30 mins
Format: ADME, Microsome
particulars: read-out: Stability
readout: remaining at 0.5 h, 5 µM (%)

                                   compound  reported_measurement
0  Cn1c(COP(=O)(NCCCl)NCCCl)cnc1[N+](=O)[O-]                    90
1  O=[N+]([O-])c1ccc(COP(=O)(NCCBr)NCCBr)o1                    79
2  CN(CCCl)P(=O)(OCc1cnc([N+](=O)[O-])n1C)N(C)CCCl                    15
3  Cn1c([N+](=O)[O-])cnc1COP(=O)(NCCBr)NCCBr                    92
4  Cn1c(COP(=O)(N(CCCl)CCCl)N(CCCl)CCCl)cnc1[N+](=O)[O-]                     0
5  Cn1c(COP(=O)(NCCBr)NCCBr)cnc1[N+](=O)[O-] [EVOFOSFAMIDE]                    92
